- Test system: Cryptococcus neoformans
- setup-conditions: Concentration 32 ug.mL-1; ASSAY_TEST Inhibition of Fungal Growth; detection method Resazurin; Absorption (OD600-OD570); plate type 384well; NBS; CORNING #3640
- Description: Antifungal activity against Cryptococcus neoformans H99 ATCC 208821 (CO-ADD:FG_002); MIC in YNB media using NBS plates, by Resazurin OD(600-570)
Measured potencies and affinities stand elsewhere.
Please provide measured Inhibition for the entries that follow.
Reply numerically in %, unit not repeated.

## Task For CC(=O)O[C@H]1C[C@@]2(C)C(C[C@@H](O)C3[C@@]4(C)CC[C@@H](OC(=O)CO[N+](=O)[O-])[C@@H](C)C4CC[C@@]32C)/C1=C(\CCC=C(C)C)C(=O)OCc1ccccc1 (some centres not stated) , write its Inhibition.
## Result -43.62

## Task Tell me its Inhibition given CC(=O)O[C@H]1C[C@@]2(C)C(C[C@@H](O)C3[C@@]4(C)CC[C@@H](OC(=O)C(N)CC(C)C)[C@@H](C)C4CC[C@@]32C)/C1=C(\CCC=C(C)C)C(=O)OCc1ccccc1 (some centres not stated) as the entry.
## Result -45.25

## Task Identify measured Inhibition associated with CC(=O)O[C@H]1C[C@@]2(C)C(C[C@@H](O)C3[C@@]4(C)CC[C@@H](OC(=O)c5ccccc5C(=O)Nc5ccc(N)cc5)[C@@H](C)C4CC[C@@]32C)/C1=C(\CCC=C(C)C)C(=O)OCc1ccccc1 (some centres not stated)
## Result -105.92

## Task Supply measured Inhibition of CC(=O)O[C@H]1C[C@@]2(C)C(C[C@@H](O)C3[C@@]4(C)CC[C@@H](OC(=O)CCC(=O)Oc5ccc(CCO[N+](=O)[O-])cc5)[C@@H](C)C4CC[C@@]32C)/C1=C(\CCC=C(C)C)C(=O)OCc1ccccc1 (some centres not stated) in your reply.
## Result -78.97

## Task Answer with the recorded Inhibition of CC(=O)O[C@H]1C[C@@]2(C)C(C[C@@H](O)C3[C@@]4(C)CC[C@@H](OC(=O)CCCCCO[N+](=O)[O-])[C@@H](C)C4CC[C@@]32C)/C1=C(\CCC=C(C)C)C(=O)OCc1ccccc1 (some centres not stated) only.
## Result -81.56

## Task Supply measured Inhibition of CC(=O)O[C@H]1C[C@@]2(C)C(CC(=O)C3[C@@]4(C)CCC(=O)[C@@H](C)C4CC[C@@]32C)/C1=C(\CCC=C(C)C)C(=O)OCc1ccccc1 (some centres not stated) in your reply.
## Result -73.01

## Task Output Inhibition of CC(=O)O[C@H]1C[C@@]2(C)C(C[C@@H](O)C3[C@@]4(C)CC[C@@H](OC(=O)C(N)C(C)C)[C@@H](C)C4CC[C@@]32C)/C1=C(\CCC=C(C)C)C(=O)OCc1ccccc1 (some centres not stated)
## Result 88.23
